Values compiled from paper PMC12459184.

Task for the reader: assign each of the following compounds its reported IC50.
test system: MCF-7 cells; experiment: MTT antiproliferative assay, MCF-7; assay type: cell-based; settings: Homo sapiens, MCF7, 72 h, read-out: IC50 (μM) ± SD MCF-7
Report only the number, with the unit µM understood.

Challenge: API: value(readout= IC50, system= MCF-7 cells, query= COc1cc(C2=NCC(=O)Nc3cn(-c4ccccc4)nc32)cc(OC)c1OC )
Response given: 1.78

Challenge: Notebook entry, MCF-7 cells assay: IC50 of COc1ccc(-n2cc3c(n2)C(c2cc(OC)c(OC)c(OC)c2)=NCC(=O)N3)cc1 = ?
Response given: 2.86
